Data origin, for the record: ChEMBL document CHEMBL1147864

Tested on: Mycobacterium tuberculosis
Assay: Antibacterial activity against Mycobacterium tuberculosis H37Rv after 2 weeks by broth dilution method
Type: functional
Conditions: 336 h
Kindly state MIC for each of the entries shown.

Ask: MIC lookup needed for `C=CCO[C@@H]1O[C@H](CO[C@H]2O[C@H](CO[C@H]3O[C@H](COC(C)=O)[C@H](OC(C)=O)[C@H](OC(C)=O)[C@H]3OC(C)=O)[C@H](OC(C)=O)[C@H](OC(C)=O)[C@H]2OC(C)=O)[C@@H](OC(C)=O)[C@H](OC(C)=O)[C@H]1OC(C)=O` , thanks.
Result: 3.13 µg/mL

Ask: MIC lookup needed for `OC[C@H](O)[C@@H](O)[C@H](O)[C@H](O)CO[C@H]1O[C@H](CO[C@H]2O[C@H](CO)[C@H](O)[C@H](O)[C@H]2O)[C@H](O)[C@H](O)[C@H]1O` , thanks.
Result: > 800 µg/mL

Ask: MIC lookup needed for CO[C@H]1/C=C/O[C@@]2(C)Oc3c(C)c(O)c4c(O)c(c(/C=N/N5CCN(C)CC5)c(O)c4c3C2=O)NC(=O)/C(C)=C\C=C\[C@H](C)[C@H](O)[C@@H](C)[C@@H](O)[C@@H](C)[C@H](OC(C)=O)[C@@H]1C [RIFAMPIN] , thanks.
Result: > 0.008 µg/mL

---

Test system: Staphylococcus aureus
Experiment: Antibacterial activity against methicillin-resistant Staphylococcus aureus 906 after 2 weeks by broth dilution method
Format: functional
Details: 336 h
Kindly state MIC for each of the entries shown.
Respond with the bare value in µg/mL.

Ask: MIC lookup needed for CO[C@H]1/C=C/O[C@@]2(C)Oc3c(C)c(O)c4c(O)c(c(/C=N/N5CCN(C)CC5)c(O)c4c3C2=O)NC(=O)/C(C)=C\C=C\[C@H](C)[C@H](O)[C@@H](C)[C@@H](O)[C@@H](C)[C@H](OC(C)=O)[C@@H]1C [RIFAMPIN] , thanks.
Result: 0.004

Ask: MIC lookup needed for `C=CCO[C@@H]1O[C@H](CO[C@H]2O[C@H](CO[C@H]3O[C@H](COC(C)=O)[C@H](OC(C)=O)[C@H](OC(C)=O)[C@H]3OC(C)=O)[C@H](OC(C)=O)[C@H](OC(C)=O)[C@H]2OC(C)=O)[C@@H](OC(C)=O)[C@H](OC(C)=O)[C@H]1OC(C)=O` , thanks.
Result: 15.1

Ask: MIC lookup needed for CN[C@@H]1[C@H](O[C@H]2[C@H](O[C@H]3[C@H](O)[C@@H](O)[C@H](N=C(N)N)[C@@H](O)[C@@H]3N=C(N)N)O[C@@H](C)[C@]2(O)C=O)O[C@@H](CO)[C@H](O)[C@H]1O (stereo in doubt) [STREPTOMYCIN] , thanks.
Result: 100

---

Kindly state MIC for each of the entries shown.
System: Mycobacterium tuberculosis
Experiment: Antibacterial activity against Mycobacterium tuberculosis H37Rv after 2 weeks by broth dilution method
Format: functional
Details: 336 h

Ask: MIC lookup needed for `C=CCO[C@@H]1O[C@H](CO[C@H]2O[C@H](CO[C@H]3O[C@H](CO)[C@H](O)[C@H](O)[C@H]3O)[C@H](O)[C@H](O)[C@H]2O)[C@@H](O)[C@H](O)[C@H]1O` , thanks.
Result: > 100 µg/mL

Ask: MIC lookup needed for CN[C@@H]1[C@H](O[C@H]2[C@H](O[C@H]3[C@H](O)[C@@H](O)[C@H](N=C(N)N)[C@@H](O)[C@@H]3N=C(N)N)O[C@@H](C)[C@]2(O)C=O)O[C@@H](CO)[C@H](O)[C@H]1O (stereo in doubt) [STREPTOMYCIN] , thanks.
Result: 0.2 µg/mL

Ask: MIC lookup needed for C=CCN=C=S [ALLYL ISOTHIOCYANATE] , thanks.
Result: > 800 µg/mL

Ask: MIC lookup needed for `CCCCO[C@@H]1O[C@H](CO[C@H]2O[C@H](CO[C@H]3O[C@H](COC(C)=O)[C@H](OC(C)=O)[C@H](OC(C)=O)[C@H]3OC(C)=O)[C@H](OC(C)=O)[C@H](OC(C)=O)[C@H]2OC(C)=O)[C@@H](OC(C)=O)[C@H](OC(C)=O)[C@H]1OC(C)=O` , thanks.
Result: > 800 µg/mL

Ask: MIC lookup needed for `CO[C@@H]1O[C@H](CO[C@H]2O[C@H](CO[C@H]3O[C@H](COC(C)=O)[C@H](OC(C)=O)[C@H](OC(C)=O)[C@H]3OC(C)=O)[C@H](OC(C)=O)[C@H](OC(C)=O)[C@H]2OC(C)=O)[C@@H](OC(C)=O)[C@H](OC(C)=O)[C@H]1OC(C)=O` , thanks.
Result: > 800 µg/mL

Ask: MIC lookup needed for CC[C@@H](CO)NCCN[C@@H](CC)CO [ETHAMBUTOL] , thanks.
Result: 1.25 µg/mL

Ask: MIC lookup needed for `CCO[C@@H]1O[C@H](CO[C@H]2O[C@H](CO[C@H]3O[C@H](COC(C)=O)[C@H](OC(C)=O)[C@H](OC(C)=O)[C@H]3OC(C)=O)[C@H](OC(C)=O)[C@H](OC(C)=O)[C@H]2OC(C)=O)[C@@H](OC(C)=O)[C@H](OC(C)=O)[C@H]1OC(C)=O` , thanks.
Result: > 800 µg/mL

Ask: MIC lookup needed for `C=CCO[C@H]1O[C@H](CO[C@H]2O[C@H](CO[C@H]3O[C@H](COC(C)=O)[C@H](OC(C)=O)[C@H](OC(C)=O)[C@H]3OC(C)=O)[C@H](OC(C)=O)[C@H](OC(C)=O)[C@H]2OC(C)=O)[C@@H](OC(C)=O)[C@H](OC(C)=O)[C@H]1OC(C)=O` , thanks.
Result: > 800 µg/mL

Ask: MIC lookup needed for `CC(=O)OC[C@H]1O[C@H](OC[C@H]2O[C@H](OC[C@H]3O[C@@H](OC(C)C)[C@H](OC(C)=O)[C@@H](OC(C)=O)[C@@H]3OC(C)=O)[C@H](OC(C)=O)[C@@H](OC(C)=O)[C@H]2OC(C)=O)[C@H](OC(C)=O)[C@@H](OC(C)=O)[C@H]1OC(C)=O` , thanks.
Result: > 800 µg/mL

---

System: Mycobacterium tuberculosis
Assay: Antibacterial activity against Mycobacterium tuberculosis H37Rv after 2 weeks by broth dilution method
Type: functional
Conditions: 336 h
observable: MIC

Ask: MIC lookup needed for `C#CCO[C@@H]1O[C@H](CO[C@H]2O[C@H](CO[C@H]3O[C@H](COC(C)=O)[C@H](OC(C)=O)[C@H](OC(C)=O)[C@H]3OC(C)=O)[C@H](OC(C)=O)[C@H](OC(C)=O)[C@H]2OC(C)=O)[C@@H](OC(C)=O)[C@H](OC(C)=O)[C@H]1OC(C)=O` , thanks.
Result: > 800 µg/mL

Ask: MIC lookup needed for `CCCO[C@@H]1O[C@H](CO[C@H]2O[C@H](CO[C@H]3O[C@H](COC(C)=O)[C@H](OC(C)=O)[C@H](OC(C)=O)[C@H]3OC(C)=O)[C@H](OC(C)=O)[C@H](OC(C)=O)[C@H]2OC(C)=O)[C@@H](OC(C)=O)[C@H](OC(C)=O)[C@H]1OC(C)=O` , thanks.
Result: > 800 µg/mL

Ask: MIC lookup needed for `CC(=O)OC[C@H](OC(C)=O)[C@@H](OC(C)=O)[C@H](OC(C)=O)[C@@H](CO[C@H]1O[C@H](CO[C@H]2O[C@H](COC(C)=O)[C@H](OC(C)=O)[C@H](OC(C)=O)[C@H]2OC(C)=O)[C@H](OC(C)=O)[C@H](OC(C)=O)[C@H]1OC(C)=O)OC(C)=O` , thanks.
Result: > 800 µg/mL

Ask: MIC lookup needed for `C/C=C/CO[C@@H]1O[C@H](CO[C@H]2O[C@H](CO[C@H]3O[C@H](COC(C)=O)[C@H](OC(C)=O)[C@H](OC(C)=O)[C@H]3OC(C)=O)[C@H](OC(C)=O)[C@H](OC(C)=O)[C@H]2OC(C)=O)[C@@H](OC(C)=O)[C@H](OC(C)=O)[C@H]1OC(C)=O` , thanks.
Result: > 400 µg/mL

Ask: MIC lookup needed for `NNC(=O)c1ccncc1` , thanks.
Result: 0.075 µg/mL

Ask: MIC lookup needed for `C=CCO` , thanks.
Result: > 400 µg/mL
